All values here come from patent US11912693B2.

assay-target: human sphingosine-1-phosphate receptor 1 (S1P1) (Homo sapiens (Human), UniProt P21453)
Sequence (P21453 whole entry, looked up): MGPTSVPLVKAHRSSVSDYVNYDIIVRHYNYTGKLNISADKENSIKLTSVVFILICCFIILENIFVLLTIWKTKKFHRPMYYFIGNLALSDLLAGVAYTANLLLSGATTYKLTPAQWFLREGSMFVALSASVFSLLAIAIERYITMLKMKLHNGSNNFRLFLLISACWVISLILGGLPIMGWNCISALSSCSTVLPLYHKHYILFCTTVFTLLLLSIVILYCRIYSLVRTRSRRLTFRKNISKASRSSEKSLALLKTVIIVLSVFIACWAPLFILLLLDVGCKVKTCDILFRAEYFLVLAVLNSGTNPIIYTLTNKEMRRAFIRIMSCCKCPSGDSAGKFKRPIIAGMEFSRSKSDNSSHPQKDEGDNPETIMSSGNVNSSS
Sequence (P32121 whole entry partner, looked up): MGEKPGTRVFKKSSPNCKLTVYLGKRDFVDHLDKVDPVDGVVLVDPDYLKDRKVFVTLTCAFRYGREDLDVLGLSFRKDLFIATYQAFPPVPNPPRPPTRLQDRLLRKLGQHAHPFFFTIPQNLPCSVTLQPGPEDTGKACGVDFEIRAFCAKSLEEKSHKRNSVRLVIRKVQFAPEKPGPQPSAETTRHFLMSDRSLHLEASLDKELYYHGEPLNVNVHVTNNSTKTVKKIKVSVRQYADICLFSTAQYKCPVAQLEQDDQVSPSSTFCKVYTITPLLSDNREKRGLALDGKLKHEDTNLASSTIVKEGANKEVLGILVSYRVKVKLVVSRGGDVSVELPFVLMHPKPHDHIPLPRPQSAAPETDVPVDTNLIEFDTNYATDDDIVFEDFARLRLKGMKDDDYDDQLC
experiment-summary: β-Arrestin2 recruitment assay (PathHunter), S1P1 CHO-K1 cells
Assay type: cell-based
run-parameters: β-arrestin2 recruitment, S1P1 CHO-K1 cells
measurement-kind: hS1P1 B-arrestin2 pEC50

> print(dat)
                                   compound  value
1  C=CCNc1ccc(-c2nc(-c3ccc4[nH]ncc4c3)no2)cc1C#N [Compound 141]     >5
2  Cc1ccccc1-c1noc(-c2ccc3c(c2)nnn3C2CCOCC2)n1 [Compound 95]     <5
3  CC(C)n1nnc2cc(-c3nc(-c4ccccc4)co3)ccc21 [Compound 294]     <5
4  CC(C)Nc1ccc(-c2nc(-c3ccc4c(c3)NC(=O)CC4)no2)cc1C#N [Compound 435]     >5
5  Cc1cc(C)cc(-c2noc(-c3ccc4c(c3)nnn4C(C)C)n2)c1 [Compound 204]     >5
6  c1ccc(-c2noc(-c3ccc4c(c3)nnn4C3CCCCC3)n2)cc1 [Compound 292]     <5
7  COc1ccccc1-c1nnc(-c2ccc3c(c2)oc(=O)n3C)o1 [Compound 406]     >5
8  CC(C)n1nnc2cc(-c3nc4c(o3)CCCc3ccccc3-4)ccc21 [Compound 434]     <5
9  COc1cccnc1-c1noc(-c2ccc3c(c2)nnn3C(C)C)n1 [Compound 627]     <5
